test system: OVCAR-3 ovarian; test: NCI-60 one-dose screen, 48 h (100 = growth as untreated, 0 = no growth, -100 = all killed); details: 10 µM unless noted
The panel holds about 83,000 compounds, 20% with a hit somewhere; the sample as a whole holds those more often.
So I've got a bunch of molecules here, and I need their growth values.
Just the number please, in %, no unit attached.

[Q] Tell me the measured growth of `CC1=C(C#N)C2=NNCC(c3ccccc3)=NN2C(c2ccccc2)=C1` , please.
[A] 111

[Q] Follow-up entry: CC1CCCCN1CCCNC(=O)N/C(N)=N/c1nc2ccccc2s1 (configuration not stated)
[A] 72.4

[Q] Same thing, different molecule: CC(=O)OC[C@@]1(C)C2CC[C@]3(C)C(CC=C4C5CC(C)(C)CC[C@]5(C(=O)Nc5ccc(Br)cc5)CC[C@]43C)[C@@]2(C)C[C@@H](OC(C)=O)[C@@H]1OC(C)=O (some centres not stated)
[A] 45

[Q] COc1ccc(N2N=C(c3ccc4c(c3)OCO4)CC2c2cccc(NC(=O)CCNS(=O)(=O)c3ccc(Cl)cc3)c2)cc1 (configuration not stated) ?
[A] 61.8

[Q] Try the molecule COc1cc(C2CC(c3cc(OC)c(OC)c(OC)c3)=NN2C(C)=O)ccc1OCc1ccccc1 (configuration not stated)
[A] 41

[Q] Likewise for `N#Cc1c(-c2cccnc2)cc(-c2ccc3ccccc3c2)[nH]c1=O` ?
[A] 102

[Q] Now consider `COc1ccc(/C=N/NC(=O)Cn2nc(Cc3ccc(OC)cc3)c3onc(C)c3c2=O)cc1` .
[A] 50.8

* * *

system: EKVX NSCLC; test: NCI-60 one-dose screen, 48 h (100 = growth as untreated, 0 = no growth, -100 = all killed); conditions: 10 µM unless noted
Compounds without any hit were thinned out: in the full panel of roughly 83,000, 20% have a hit.
Assignment: determine reported growth for the given compounds.
Output spec: scalar in %, unitless text.

[Q] // query growth value for entry O=C(c1ccc(OCCN2CCOCC2)cc1)C1[C@H](c2ccc(Cl)cc2)[C@@H](c2ccccc2)NC12C(=O)Nc1ccc(Br)cc12 (stereo partly drawn)
[A] 19.8

[Q] How about `COc1ccc(-c2ccnc(SCc3cc4ccccc4[nH]c3=O)n2)cc1` ?
[A] 69.8

[Q] Also, `O=C(CN1C(=O)/C(=C/c2ccccc2Cl)SC1=S)N1CCOCC1` please.
[A] 99.8

* * *

test system: HOP-62 NSCLC; assay: NCI-60 one-dose screen, 48 h (100 = growth as untreated, 0 = no growth, -100 = all killed); details: 10 µM unless noted
The panel holds about 83,000 compounds, 20% with a hit somewhere; the sample as a whole holds those more often.
Label key: yes (1) means growth under 70%; no (0) means growth of 70% or more.

[Q] Here's an entry: `CCC(C)(C)c1ccc(OCCCCCCN2CCN(c3ccncc3)CC2)cc1` . Is its growth below 70%?
[A] yes (1)

[Q] Please do the same for `Cn1cc(-c2cc3nc(-c4cn(C)c5ncccc45)cc(N)n3n2)c2cc(Cl)ccc21` as well.
[A] yes (1)

[Q] Note, next up: `CCOC(=O)COc1c(OC)c(OC)cc2oc(-c3cccc(C(=O)Nc4ccc(Cl)cc4)c3)cc(=O)c12`
[A] yes (1)

[Q] Do the same for `COc1ccc(/C=C/c2nc3ccccc3nc2Nc2cccc(C)c2)cc1` please
[A] no (0)

[Q] Also, `Cc1ccc(C(=O)C(c2c[nH]c3ccccc23)c2c[nH]c3ccccc23)cc1` please.
[A] no (0)

[Q] Would you mind doing `CCN(CC)c1ccc(/C=N/Nc2nc(-c3ccc(C)cc3)cs2)c(O)c1` as well?
[A] no (0)

[Q] Further, for `COc1ccc(C(=O)/C=C/c2ccc(Oc3nc(Nc4ccc(F)cc4)nc(N(C)C)n3)c(OC)c2)cc1` ?
[A] no (0)

[Q] What about this molecule? `CSc1ccc(C(=O)Nc2ccc3nnn(/C(C#N)=C/c4ccccn4)c3c2)cc1`
[A] yes (1)

[Q] Item: `COc1ccc(-c2c(Nn3cnnn3)no[n+]2[O-])cc1`
[A] no (0)

[Q] // repeat for C#CCOc1cc(N(CC)CC)ccc1C(C(=O)NC(C)(C)C)N(C(=O)C1CCc2cc(F)ccc2O1)c1ccccc1Br (stereo unspecified) and report
[A] no (0)

[Q] For `N#Cc1c(-c2cccc3ccccc23)cc(-c2cccc(OCC(=O)O)c2)[nH]c1=O` then?
[A] no (0)

[Q] Try this molecule too: COc1cc2c(c(OC)c1OC)C(=O)CC(c1cccc(NC(=O)c3cc(NC(=O)[C@H](C)N)ccc3Cl)c1)O2 (stereo partly specified)
[A] no (0)

[Q] // same read-out, input: `Cn1cc(-c2cc3nc(-c4c[nH]c5ccc(Cl)cc45)cc(N)n3n2)c2ccccc21`
[A] yes (1)

[Q] Field entry: C=C1CCC2C3(C)COC(c4ccccc4)OC3CCC2(C)C1CC(NCc1ccccc1)C1=CCOC1=O (stereo unspecified)
[A] no (0)

[Q] Also, `COc1ccc(NC(=O)Cn2c(O)c(N=Nc3ccc(S(N)(=O)=O)cc3)c3ccccc32)cc1` please.
[A] yes (1)

[Q] Another molecule to check: COc1c(F)ccc(C(=O)Nc2ccc3nc(NC(=O)C4CCCN(S(=O)(=O)c5cccc(Cl)c5)C4)sc3c2)c1F (stereo unspecified)
[A] no (0)

[Q] Also `O=C(O)Cn1c(O)c(/C=C2/C=c3cc4c(cc3=NC2=O)OCCO4)sc1=S` , if possible.
[A] no (0)

[Q] Now consider COc1ccc(N2N=C(c3ccc4c(c3)OCO4)CC2c2cccc(NC(=O)CCCNS(=O)(=O)c3ccc(F)cc3)c2)cc1 (stereo unspecified) .
[A] no (0)

[Q] Request: `O=C(COc1ccc(NC(=O)Nc2ccc(Cl)c(Cl)c2)cc1)N=Nc1c(O)[nH]c2ccccc12`
[A] yes (1)

[Q] Another molecule: `O=c1oc2ccc(Br)cc2cc1C1=CSc2nc3sc4c(c3c(=O)n2N=C1)CCCC4`
[A] no (0)

[Q] Same for `CCCCCCn1c(O)c(N=Nc2nc(-c3cc4ccccc4oc3=O)cs2)c2ccccc21`
[A] yes (1)

[Q] And what about the molecule O=C(/C=C/c1ccc(O)c(O)c1)NC1CCOC1O (stereo unspecified) ?
[A] no (0)

[Q] // same read-out, input: `Cc1cc2c(cc1Cl)C(=O)/C(=C/c1ccccc1)O2`
[A] yes (1)

[Q] Here is the next molecule: `CC(=O)c1cccc(NC(=O)CCC(=O)NS(=O)(=O)c2ccc(C)cc2)c1`
[A] no (0)

[Q] Try this molecule too: `O=c1onc(-c2cc3ccccc3nc2Cl)n1-c1cccc2ccccc12`
[A] yes (1)

[Q] Now the molecule CC1(C)CC[C@]2(C(=O)O)CC[C@]3(C)C(=CCC4[C@@]5(C)C[C@@H](O)[C@@H]6OC(c7ccccc7Br)OC[C@@]6(C)C5CC[C@]43C)C2C1 (stereo partly specified)
[A] yes (1)

[Q] Check `O=C(/C=C/c1ccc(-c2ccccc2)cc1)c1nc2ccccc2n1Cc1ccc(Br)cc1` too.
[A] yes (1)

[Q] Likewise for `COc1ccc2[nH]cc(-c3nnc(N)nc3-c3c[nH]c4ncc(Br)cc34)c2c1` ?
[A] no (0)

[Q] Another: `N#Cc1c(-c2cccc(Cl)c2Cl)cc(-c2c[nH]c3ccccc23)[nH]c1=O`
[A] no (0)

* * *

System: BT-549 breast
Assay: NCI-60 one-dose screen, 48 h (100 = growth as untreated, 0 = no growth, -100 = all killed)
Details: 10 µM unless noted
Protocol: Growth inhibition of the BT-549 human tumor cell line is measured as a screen for anti-cancer activity. Cells are grown in 96 well plates and exposed to the test compound for 48 hours. Compounds are tested at a single concentration, which is 10^-5 M for most compounds. The reported endpoint is percent growth (GI% or GIPRCNT), where numbers from 0 - 100% represent growth inhibition, and numbers from -100% - 0 represent cell death. For example, a value of 40 represents 60% growth inhibition. […]
The panel holds about 83,000 compounds, 20% with a hit somewhere; the sample as a whole holds those more often.
Measured Endpoint: growth (%)
Note: unit % is implicit; provide only the numeric part.

[Q] Data request, read-out growth, for `COc1ccc(-c2nc3cc(C)ccc3n2CC(=O)N=Nc2c(O)[nH]c3ccccc23)cc1`
[A] -63.2

[Q] Lookup `N/C(=N\c1nc2ccccc2s1)NC(=O)Nc1ccc(Cl)cc1Cl`
[A] -17.6

[Q] # iterate: O=C(C1=CNC(=S)NC1c1ccc(O)cc1)c1cc2ccccc2oc1=O (stereo not drawn)
[A] 83.7

* * *

system: SK-MEL-28 melanoma; experiment: NCI-60 one-dose screen, 48 h; conditions: 10 µM unless noted
The panel holds about 83,000 compounds, 20% with a hit somewhere; the sample as a whole holds those more often. The source made the active and inactive calls. The calls were made as follows: active = growth percent below 10; inactive = the rest.
Output constraint: value belongs to active, inactive

[Q] Field: outcome | Entry: `CCCCCCCCc1ccc(C(=O)Nc2cccc(P(=O)(O)O)c2)cc1`
[A] inactive

[Q] Then what about the compound `COc1ccc2oc3c4[nH]c5ccccc5c4c4c(c3c2c1)C(=O)N(C(=O)OC(C)(C)C)C4=O` ?
[A] active

[Q] // same read-out, input: `COc1ccc2[nH]cc(-c3cc(N)n4nc(-c5cn(C)c6ccccc56)cc4n3)c2c1`
[A] active

[Q] Let us now turn to CC(=O)Oc1ccc(/C=C/C(=O)N[C@@H](Cc2ccccc2)C(O)C(=O)NCc2ccccc2)cc1OC(C)=O (some centres not stated)
[A] inactive

[Q] Now give it for CC1(C)CC[C@]2(C(=O)O)CC[C@]3(C)C(=CCC4[C@@]5(C)C[C@@H](O)[C@@H]6OC(c7cccc(Br)c7)OC[C@@]6(C)C5CC[C@]43C)C2C1 (some centres not stated) too.
[A] inactive

[Q] Also `COc1cccc(-c2nc(Nc3ccc(S(N)(=O)=O)cc3)c3ccccc3n2)c1` ?
[A] inactive

[Q] And what about the compound `Cc1ccc(C(=O)NN2C(=O)/C(=C/C=C/c3ccc([N+](=O)[O-])o3)SC2=S)cc1` ?
[A] active

[Q] `Nc1cccc(SCc2cc3ccccc3[nH]c2=O)c1` ?
[A] inactive

[Q] Same thing, different compound: C=C1CCC2C3(C)COC(c4ccco4)OC3CCC2(C)C1CC(Sc1ccccc1)C1=CCOC1=O (configuration not stated)
[A] inactive

[Q] Same again, this time with C=C1CC[C@@H]2[C@]3(C)COC(c4cn[nH]c4-c4ccc(OC)cc4)O[C@@H]3CC[C@@]2(C)[C@@H]1C/C=C1/C(=O)OCC1O (some centres not stated)
[A] active

[Q] # repeat for `CCC(C)(C)c1ccc(OCCCCCCN2CCN(c3ccncc3)CC2)cc1`
[A] active

[Q] Input `Cc1ccc2c(N)c(C(=O)Nc3ccc(OC(F)(F)F)cc3)sc2n1`
[A] inactive

Values compiled from PubChem BioAssay (NCI).
